Where do the numbers come from? From patent US20240043504A1.

- System: SARS-COV-2 RBD extracellular domain expressed with a C-terminal mouse IgG2a (SARS-CoV-2)
- Assay Summary: SPR Biacore, mAb captured via anti-hFc, 25 C
Recorded Endpoint: kon (M⁻¹ s⁻¹)
Enter your answer as a number in M⁻¹ s⁻¹; do not include the unit.

Name the reported kon value associated with the binder mAb11008 (antibody, V domains shown) VH: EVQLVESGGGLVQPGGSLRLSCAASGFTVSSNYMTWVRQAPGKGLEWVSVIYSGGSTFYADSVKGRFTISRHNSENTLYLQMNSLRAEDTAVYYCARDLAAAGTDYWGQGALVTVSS VL: DIQLTQSPSFLSASVGDRVTITCWASQGISSYLAWYQQKPGKAPKLLIYAASTLQSGVPSRFSGSGSGTEFTLTISSLQPDDFATYYCQHLNSYLYTFGQGTKLEIKR
390000
